S365 values, listed per item
# Protocol text: Example 4: photographic speed and fog, 365 nm exposure, blue dyed emulsion T-2
# Applied conditions: 0.44 x10^-3 mole/mole Ag; dye I 0.91 x10^-3; dyed control=100
Where a name gives a salt, the structure may show the parent alone.

Compound	S365
CCSCCN(c1ccccc1)C(C)C(=O)O (stereo not shown) [Compound S-9, sodium salt]	102
CCSCCN(c1ccc(Cl)cc1)C(C)C(=O)O (stereo not shown) [Compound S-12, sodium salt]	141
CCSCCN(c1ccc(C(=O)O)cc1)C(C)C(=O)O (stereo not shown)	145
CCSCCN(c1cccc(C(N)=O)c1)C(C)C(=O)O (stereo not shown)	151

Cited source for all entries: patent US5747235A
